# Tested on: U373WT (wild-type established GBM line)
# protocolText: Drug screening of U373WT tumor foci on OBSCs
# Type: cell-based, human
# appliedConditions: U373 WT on OBSCs; dose required to kill 25% of the tumor
Binary call on EC25: met from 30 µM upward, not met beneath that.

Use the examples below as a reference point.
Nc1ccn([C@@H]2O[C@H](CO)[C@@H](O)C2(F)F)c(=O)n1 [Gemcitabine] = met
Cn1nnc2c(C(N)=O)ncn2c1=O [Temozolomide] = met
N.N.[Cl][Pt][Cl] [Cisplatin] = not met

Prompt: For this compound, is measured EC25 30 µM or higher? CC(=O)Nc1cccc(-n2c(=O)n(C3CC3)c(=O)c3c(Nc4ccc(I)cc4F)n(C)c(=O)c(C)c32)c1 [Trametinib]
Completion: not met

Prompt: For this compound, is measured EC25 30 µM or higher? COc1cc([C@@H]2c3cc4c(cc3[C@@H](O[C@@H]3O[C@@H]5CO[C@@H](C)O[C@H]5[C@H](O)[C@H]3O)[C@H]3COC(=O)[C@H]23)OCO4)cc(OC)c1O [Etoposide]
Completion: met

###

# System: GBM8 (high-passage patient-derived GBM line)
# protocolText: Drug screening of GBM8 tumor foci on OBSCs
# Type: cell-based, human
# appliedConditions: GBM8 on OBSCs; area under the dose-response curve, trapezoidal rule
metricName: AUC
Note: the reply should be a number with no unit written.

Study these solved cases before continuing.
Nc1ncn([C@@H]2O[C@H](CO)[C@@H](O)[C@H]2O)c(=O)n1 = 4.08E+01
CC(=O)Nc1cccc(-n2c(=O)n(C3CC3)c(=O)c3c(Nc4ccc(I)cc4F)n(C)c(=O)c(C)c32)c1 = 4.78E+00
N.N.O=C([O-])C1(C(=O)[O-])CCC1.[Pt+2] = 1.03E+01
COc1cc([C@@H]2c3cc4c(cc3[C@@H](O[C@@H]3O[C@@H]5CO[C@@H](C)O[C@H]5[C@H](O)[C@H]3O)[C@H]3COC(=O)[C@H]23)OCO4)cc(OC)c1O [Etoposide] = 8.40E+00

Here is the next item to consider.
Prompt: Quick one: AUC for N.N.[Cl][Pt][Cl] [Cisplatin] ?
Completion: 1.76E-01
